Target Under Test: T1, BRCA2OB (human, UniProt P51587 2665-3197)
T1 sequence: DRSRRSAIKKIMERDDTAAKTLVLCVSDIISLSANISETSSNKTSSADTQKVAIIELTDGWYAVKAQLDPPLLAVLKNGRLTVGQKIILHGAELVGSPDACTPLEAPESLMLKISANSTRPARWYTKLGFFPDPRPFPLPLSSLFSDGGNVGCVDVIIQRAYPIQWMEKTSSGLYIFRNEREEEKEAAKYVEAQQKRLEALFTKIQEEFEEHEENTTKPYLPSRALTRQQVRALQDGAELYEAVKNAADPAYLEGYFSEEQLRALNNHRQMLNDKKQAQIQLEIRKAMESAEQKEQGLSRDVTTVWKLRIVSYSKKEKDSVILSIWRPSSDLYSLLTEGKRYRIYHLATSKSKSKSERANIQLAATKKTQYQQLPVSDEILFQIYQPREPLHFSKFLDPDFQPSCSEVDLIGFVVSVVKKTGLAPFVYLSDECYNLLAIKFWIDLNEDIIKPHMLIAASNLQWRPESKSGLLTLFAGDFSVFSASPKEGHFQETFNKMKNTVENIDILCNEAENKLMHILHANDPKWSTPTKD
Test Method Notes: EMSA; 100 mM KCl; EMSA: 10 nM probe, 50 mM Tris-HCl pH 7.5, 100 mM KCl, 2 mM b-ME, 10% glycerol, probe pre-incubated 37 C, gel 4 C (RAD51: +1 mM MgCl2, 2 mM ATP); smFRET: 50 mM Tris-HCl pH 7.9, 100 mM KCl, 20 mM NaCl, 1 mM DTT, 0.1 mg/ml BSA, 9% glycerol, 37 C
Measurement Setup: protein: recombinant; tags: N-MBP, C-6xHis; label: 5' 32P; intramolecular G4
Recorded Metric: Kd
A bare number is not enough; add the unit after it.

Reported Kd for GGTTTGGGTTTGGGTTTGGGTTTGGGTTTG (structured_DNA) [TelG5TTT] : what is it?
456 nM
